Hey, just so you know, these numbers are from patent US20250195685A1.

# Lookup of reported kon keyed by entry
- TEST SYSTEM: T1, human CD8αα homodimer, recombinant protein (Acro Biosystems) (human, UniProt P01732 22-182)
- T1 construct: also called CD8αα antigen; biotinylated CD8α recombinant protein (CDA-H82E3)
- T1 sequence (P01732 22-182 limits assumed): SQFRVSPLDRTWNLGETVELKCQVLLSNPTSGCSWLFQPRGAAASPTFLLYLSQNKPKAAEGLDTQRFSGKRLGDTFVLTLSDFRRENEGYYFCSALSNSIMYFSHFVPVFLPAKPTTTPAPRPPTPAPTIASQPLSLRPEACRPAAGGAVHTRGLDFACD
- ASSAY OVERVIEW: BLI kinetics, F(ab) on biotinylated CD8α (SA-XT sensor), 1:1 fit, 37 °C [CONT'ED]

# BINDER, UNITS SYMBOL, kon
data = [
    ("CBD1035 (Fab, V domains shown, also called h1017-H3/L2 F(ab)) VH: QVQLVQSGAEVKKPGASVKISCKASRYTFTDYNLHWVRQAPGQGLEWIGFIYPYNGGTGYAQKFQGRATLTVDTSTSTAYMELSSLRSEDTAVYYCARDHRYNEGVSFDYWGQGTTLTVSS VL: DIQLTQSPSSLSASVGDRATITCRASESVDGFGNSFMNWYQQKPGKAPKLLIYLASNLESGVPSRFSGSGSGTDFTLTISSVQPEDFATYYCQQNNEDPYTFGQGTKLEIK", "M⁻¹ s⁻¹", 11400),
    ("CBD1036 (Fab, V domains shown, also called h1017-H3/L3 F(ab)) VH: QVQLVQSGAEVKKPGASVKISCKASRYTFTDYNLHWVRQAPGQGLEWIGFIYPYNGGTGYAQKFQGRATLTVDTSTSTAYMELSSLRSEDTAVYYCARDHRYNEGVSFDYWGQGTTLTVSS VL: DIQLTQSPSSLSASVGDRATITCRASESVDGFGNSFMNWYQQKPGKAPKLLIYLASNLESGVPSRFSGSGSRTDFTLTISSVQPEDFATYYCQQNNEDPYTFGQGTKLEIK", "M⁻¹ s⁻¹", 117000),
    ("CBD1017ch Fab (chimeric CT8 Fab) (Fab, V domains shown, Chimeric: variable regions of mouse CT8 (clone RPA-T8) with human constant parts; also called parental CBD1017ch Fab) VH: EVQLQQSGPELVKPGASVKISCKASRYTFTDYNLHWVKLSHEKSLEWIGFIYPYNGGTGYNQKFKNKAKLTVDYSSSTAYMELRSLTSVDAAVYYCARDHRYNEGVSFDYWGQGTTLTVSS VL: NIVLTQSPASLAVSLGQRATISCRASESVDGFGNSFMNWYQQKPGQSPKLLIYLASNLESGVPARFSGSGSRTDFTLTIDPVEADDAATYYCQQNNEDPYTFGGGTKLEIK", "M⁻¹ s⁻¹", 69500),
]
